Give measured relative viability for each item. Keep answers brief.
system: NCI-H1993; test: relative viability (nuclei count vs DMSO), 5 days (fraction); higher = more cells survive; details: first compound 0.03162 µM

Worked examples, 3 molecules total:
molecule	value_observed
Cc1cn(-c2cc(NC(=O)c3ccc(C)c(Nc4nccc(-c5cccnc5)n4)c3)cc(C(F)(F)F)c2)cn1 [Nilotinib] + Cc1nc(NC(=O)N2CCC[C@H]2C(N)=O)sc1-c1ccnc(C(C)(C)C(F)(F)F)c1 [Alpelisib] (partner 2 µM)	0.594
Cc1cn(-c2cc(NC(=O)c3ccc(C)c(Nc4nccc(-c5cccnc5)n4)c3)cc(C(F)(F)F)c2)cn1 [Nilotinib] + Cc1cc(Nc2cc(N3CCN(C)CC3)nc(Sc3ccc(NC(=O)C4CC4)cc3)n2)n[nH]1 [Tozasertib] (partner 0.1 µM)	0.586
Cc1cn(-c2cc(NC(=O)c3ccc(C)c(Nc4nccc(-c5cccnc5)n4)c3)cc(C(F)(F)F)c2)cn1 [Nilotinib] + NC(=O)Nc1cc(-c2cccc(F)c2)sc1C(=O)N[C@H]1CCCNC1 [AZD7762] (partner 0.2 µM)	0.754

Input Cc1cn(-c2cc(NC(=O)c3ccc(C)c(Nc4nccc(-c5cccnc5)n4)c3)cc(C(F)(F)F)c2)cn1 [Nilotinib] + N=C(N)NC(=N)NCCc1ccccc1 [Phenformin] (partner 250 µM) . Output relative viability: 0.482

----------
tested on: NCI-H2342; assay: relative viability (nuclei count vs DMSO), 5 days (fraction); higher = more cells survive; details: first compound 0.002 µM
property_measured: relative viability
Give bare numbers.

compound	value_observed
CCNC(=O)c1noc(-c2cc(C(C)C)c(O)cc2O)c1-c1ccc(CN2CCOCC2)cc1 [Luminespib] + Cc1nc(Nc2ncc(C(=O)Nc3c(C)cccc3Cl)s2)cc(N2CCN(CCO)CC2)n1 [Dasatinib] (partner 0.075 µM)	0.351

Provide the reported relative viability of each entry below, same order.
1. CCNC(=O)c1noc(-c2cc(C(C)C)c(O)cc2O)c1-c1ccc(CN2CCOCC2)cc1 [Luminespib] + CC(=O)c1c(C)c2cnc(Nc3ccc(N4CCNCC4)cn3)nc2n(C2CCCC2)c1=O [Palbociclib] (partner 0.5 µM)
2. CCNC(=O)c1noc(-c2cc(C(C)C)c(O)cc2O)c1-c1ccc(CN2CCOCC2)cc1 [Luminespib] + N=C(N)NC(=N)NCCc1ccccc1 [Phenformin] (partner 250 µM)

Data returned:
[0.527, 0.549]

Go through the list and state relative viability for each entry.
1. CCNC(=O)c1noc(-c2cc(C(C)C)c(O)cc2O)c1-c1ccc(CN2CCOCC2)cc1 [Luminespib] + COc1cc2c(Oc3ccc(NC(=O)C4(C(=O)Nc5ccc(F)cc5)CC4)cc3F)ccnc2cc1OCCCN1CCOCC1 [Foretinib] (partner 0.25 µM)
2. CCNC(=O)c1noc(-c2cc(C(C)C)c(O)cc2O)c1-c1ccc(CN2CCOCC2)cc1 [Luminespib] + NC(=O)Nc1cc(-c2cccc(F)c2)sc1C(=O)N[C@H]1CCCNC1 [AZD7762] (partner 0.2 µM)
3. CCNC(=O)c1noc(-c2cc(C(C)C)c(O)cc2O)c1-c1ccc(CN2CCOCC2)cc1 [Luminespib] + Nc1ncn([C@H]2C[C@H](O)[C@@H](CO)O2)c(=O)n1 [Decitabine] (partner 2 µM)

Data returned:
1.02
0.472
0.648

----------
test system: NCI-H661; experiment: relative viability (nuclei count vs DMSO), 5 days (fraction); higher = more cells survive; settings: first compound 0.2 µM
// classify: if (relative viability < 0.3) label 1 else label 0

Take a look at these entries with their results.
compound	target_entity	assigned_class
CN1CCN(CCOc2cc(OC3CCOCC3)c3c(Nc4c(Cl)ccc5c4OCO5)ncnc3c2)CC1 [Saracatinib] + CC(C)C[C@H](NC(=O)[C@H](Cc1ccccc1)NC(=O)c1cnccn1)B(O)O [Bortezomib] (partner 0.002 µM)	NCI-H661	label 0
CCNC(=O)c1noc(-c2cc(C(C)C)c(O)cc2O)c1-c1ccc(CN2CCOCC2)cc1 [Luminespib] + Nc1ncn([C@H]2C[C@H](O)[C@@H](CO)O2)c(=O)n1 [Decitabine] (partner 2 µM)	NCI-H661	label 0
Cc1csc(=NC2CCCCC2)n1/N=C/c1ccc(O)c(O)c1O [MIM1] + Cc1nc(NC(=O)N2CCC[C@H]2C(N)=O)sc1-c1ccnc(C(C)(C)C(F)(F)F)c1 [Alpelisib] (partner 2 µM)	NCI-H661	label 0
CCNC(=O)c1noc(-c2cc(C(C)C)c(O)cc2O)c1-c1ccc(CN2CCOCC2)cc1 [Luminespib] + CC(=O)Nc1cccc(-n2c(=O)n(C3CC3)c(=O)c3c(Nc4ccc(I)cc4F)n(C)c(=O)c(C)c32)c1 [Trametinib] (partner 0.02 µM)	NCI-H661	label 1
CCNC(=O)c1noc(-c2cc(C(C)C)c(O)cc2O)c1-c1ccc(CN2CCOCC2)cc1 [Luminespib] + CC(C)C[C@H](NC(=O)[C@H](Cc1ccccc1)NC(=O)c1cnccn1)B(O)O [Bortezomib] (partner 0.002 µM)	NCI-H661	label 1

Data request: Hello, is relative viability of the following compound strictly smaller than 0.3? CN1CCN(CCOc2cc(OC3CCOCC3)c3c(Nc4c(Cl)ccc5c4OCO5)ncnc3c2)CC1 [Saracatinib] + COc1cccc2cc(-c3nc([C@H]4CC[C@H](C(=O)O)CC4)n4ncnc(N)c34)[nH]c12 [OSI-027] (partner 0.5 µM)
Data returned: label 0

Data request: Determine if CN1CCN(CCOc2cc(OC3CCOCC3)c3c(Nc4c(Cl)ccc5c4OCO5)ncnc3c2)CC1 [Saracatinib] + Cc1nc(NC(=O)N2CCC[C@H]2C(N)=O)sc1-c1ccnc(C(C)(C)C(F)(F)F)c1 [Alpelisib] (partner 2 µM) shows relative viability strictly lower than 0.3.
Data returned: label 0

Data request: Given CN1CCN(CCOc2cc(OC3CCOCC3)c3c(Nc4c(Cl)ccc5c4OCO5)ncnc3c2)CC1 [Saracatinib] + N=C(N)NC(=N)NCCc1ccccc1 [Phenformin] (partner 250 µM) , is recorded relative viability strictly lower than 0.3?
Data returned: label 1

----------
system: COR-L 105; experiment: relative viability (nuclei count vs DMSO), 5 days (fraction); higher = more cells survive; details: first compound 6.325 µM
Quick rule for you: relative viability under 0.9 gets criterion met, anything else gets criterion not met.

// below: answered molecules
molecule	assigned_class
Cc1csc(=NC2CCCCC2)n1/N=C/c1ccc(O)c(O)c1O [MIM1] + O=C(c1cc(Cc2n[nH]c(=O)c3ccccc23)ccc1F)N1CCN(C(=O)C2CC2)CC1 [Olaparib] (partner 8 µM)	criterion met
Cc1csc(=NC2CCCCC2)n1/N=C/c1ccc(O)c(O)c1O [MIM1] + Nc1nc2[nH]cc(CCc3ccc(C(=O)N[C@@H](CCC(=O)O)C(=O)O)cc3)c2c(=O)[nH]1 [Pemetrexed] (partner 0.2 µM)	criterion not met
Cc1csc(=NC2CCCCC2)n1/N=C/c1ccc(O)c(O)c1O [MIM1] + CC(=O)c1c(C)c2cnc(Nc3ccc(N4CCNCC4)cn3)nc2n(C2CCCC2)c1=O [Palbociclib] (partner 0.5 µM)	criterion met

As a next step, examine the molecule that follows.
Data request: Please check: relative viability for Cc1csc(=NC2CCCCC2)n1/N=C/c1ccc(O)c(O)c1O [MIM1] + COc1cc2c(Oc3ccc(NC(=O)C4(C(=O)Nc5ccc(F)cc5)CC4)cc3F)ccnc2cc1OCCCN1CCOCC1 [Foretinib] (partner 0.25 µM) , strictly under 0.9 or not?
Data returned: criterion not met

----------
tested on: NCI-H358; assay: relative viability (nuclei count vs DMSO), 5 days (fraction); higher = more cells survive; conditions: first compound 0.001 µM
Consider the following molecules; for each one, report its relative viability.
Give bare numbers.

Worked cases, answers included:
molecule	relative viability
Cc1cn(-c2cc(NC(=O)c3ccc(C)c(Nc4nccc(-c5cccnc5)n4)c3)cc(C(F)(F)F)c2)cn1 [Nilotinib] + CS(=O)(=O)N1CCN(Cc2cc3nc(-c4cccc5[nH]ncc45)nc(N4CCOCC4)c3s2)CC1 [Pictilisib] (partner 1 µM)	0.375
Cc1cn(-c2cc(NC(=O)c3ccc(C)c(Nc4nccc(-c5cccnc5)n4)c3)cc(C(F)(F)F)c2)cn1 [Nilotinib] + O=C(CCCCCCC(=O)Nc1ccccc1)NO [Vorinostat] (partner 1 µM)	0.601
Cc1cn(-c2cc(NC(=O)c3ccc(C)c(Nc4nccc(-c5cccnc5)n4)c3)cc(C(F)(F)F)c2)cn1 [Nilotinib] + Nc1nc2[nH]cc(CCc3ccc(C(=O)N[C@@H](CCC(=O)O)C(=O)O)cc3)c2c(=O)[nH]1 [Pemetrexed] (partner 0.2 µM)	0.187
Cc1cn(-c2cc(NC(=O)c3ccc(C)c(Nc4nccc(-c5cccnc5)n4)c3)cc(C(F)(F)F)c2)cn1 [Nilotinib] + O=C(c1cc(Cc2n[nH]c(=O)c3ccccc23)ccc1F)N1CCN(C(=O)C2CC2)CC1 [Olaparib] (partner 8 µM)	0.546

# ---- query molecule ----
Form field relative viability, entry Cc1cn(-c2cc(NC(=O)c3ccc(C)c(Nc4nccc(-c5cccnc5)n4)c3)cc(C(F)(F)F)c2)cn1 [Nilotinib] + C[C@@H](Oc1cc(-c2cnn(C3CCNCC3)c2)cnc1N)c1c(Cl)ccc(F)c1Cl [Crizotinib] (partner 1 µM) : 0.447
